- Assayed System: ARα2C (Homo sapiens, UniProt P18825)
- Sequence (P18825 1-462): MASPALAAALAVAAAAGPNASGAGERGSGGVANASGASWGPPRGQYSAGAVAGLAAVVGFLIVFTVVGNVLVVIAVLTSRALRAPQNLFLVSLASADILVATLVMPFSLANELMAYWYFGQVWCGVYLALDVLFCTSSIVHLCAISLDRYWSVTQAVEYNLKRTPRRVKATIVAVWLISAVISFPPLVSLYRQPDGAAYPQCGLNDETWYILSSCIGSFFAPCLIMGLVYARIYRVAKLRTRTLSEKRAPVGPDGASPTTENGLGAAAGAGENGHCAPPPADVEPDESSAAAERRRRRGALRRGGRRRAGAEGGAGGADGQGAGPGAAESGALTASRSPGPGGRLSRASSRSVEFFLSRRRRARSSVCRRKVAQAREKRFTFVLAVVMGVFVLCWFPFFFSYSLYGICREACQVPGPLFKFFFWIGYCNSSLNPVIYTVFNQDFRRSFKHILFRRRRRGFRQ
pKi: −log10 of the molar value.
Readout Kind: pKi

INSERT INTO assay_data (compound, observed) VALUES
  ('CC1N=C(c2ccccc2F)c2cc(Nc3ccc(Cl)cc3)ccc2NC1=O (stereo not shown) [Compound 5]', 5.79),
  ('CC1N=C(c2ccccc2F)c2cc(Nc3ccccc3)ccc2NC1=O (stereo not shown) [Compound 2]', 5.95),
  ('Cc1cccc(Nc2ccc3c(c2)C(c2ccccc2F)=NC(C)C(=O)N3)c1 (stereo not shown) [Compound 18]', 5.93),
  ('COC(=O)c1ccc(Nc2ccc3c(c2)C(c2ccccc2F)=NC(C)C(=O)N3)cc1 (stereo not shown) [Compound 11]', 5.81);

Attribution: paper PMC12495306
